organism: Homo sapiens; experiment: Ratio of IC50 for human CYP3A4 to IC50 for human 17,20-lyase
measured_quantity: Ratio IC50

- molecule: "COc1ccc(-c2cccc(C(O)(c3c[nH]cn3)C(C)C)c2)cc1 (racemic)"
  modifier_sign: "="
  quantitative_readout: 15
- molecule: "CC(C)C(O)(c1cccc(-c2ccc(Cl)cc2)c1)c1c[nH]cn1 (racemic)"
  modifier_sign: "="
  quantitative_readout: 49
- molecule: "CC(C)C(O)(c1ccc(-c2ccccc2)cc1)c1c[nH]cn1 (racemic)"
  modifier_sign: "="
  quantitative_readout: 112
- molecule: "COc1ccc(-c2ccc(C(O)(c3c[nH]cn3)C(C)C)cc2)cc1 (racemic)"
  modifier_sign: "="
  quantitative_readout: 91
- molecule: "CC[C@](O)(c1ccc(-c2cccc(NC(C)=O)c2)cc1)c1c[nH]cn1"
  modifier_sign: ">"
  quantitative_readout: 300

FYI, the data here is from ChEMBL document CHEMBL1765076.
